Literature compilation of Ki measurements on Plasminogen (Homo sapiens, UniProt P00747).
Your answer is read as µM, so omit the unit and give the number.

Example results:
CCOC(=O)C(Oc1ccc2c(c1)CN(C(=N)N)CC2)c1ccc(OC2CCOCC2)cc1 (configuration not stated) ... 26
NC(N)=Nc1nccc2ccc(S(N)(=O)=O)cc12 ... 13
CSc1sc(C(=N)N)cc1-c1nc(-c2ccc3c(c2)OCO3)cs1 ... 10.8

Turning now to a further compound:
API: value(readout= Ki, system= Plasminogen (Homo sapiens, UniProt P00747), query= N=C(N)c1ccc2cc(C(=O)Nc3ccc4c(c3)C(C3CCCC3)NCC4)ccc2c1 (configuration not stated) )
0.833
